# Test system: DGAT
# TEST PROTOCOL: DGAT Phospholipid FlashPlate Assay
# Type: biochemical
# DETAILS: DGAT pellet, DAG-coated PL-FlashPlate, 14C-Pal-CoA, 37° C. for 1 hour; read-out: DGAT Inhibition Activity IC50
Structures can show the parent of a compound that is named as a salt.
Threshold-based label: IC50 under 0.4 µM gives criterion met, IC50 not under 0.4 µM gives criterion not met.

INSERT INTO measurements (molecule, group) VALUES
  ('COc1cccc2c(C)c(C(=O)Nc3ccc(N4CCN(C(=O)CC(C)(C)C(=O)O)CC4)cc3)[nH]c12', 'criterion met'),
  ('CCCOc1cccc2c1cc(C(=O)Nc1ccc(N3CCN(C(=O)OC(C)(C)C)CC3)nc1)n2CC', 'criterion met'),
  ('CCOC(=O)N1CCN(c2ccc(NC(=O)c3cc4c(OC)cccc4n3CC)cn2)CC1', 'criterion met');

Regarding "CCn1c(C(=O)Nc2ccc(N3CCN(C(=O)OC(C)(C)C)CC3)nc2)cc2c(OC)cc(OC)cc21" , kindly confirm whether its IC50 is beneath 0.4 µM.
criterion met

Next molecule: COCCN(C)c1ncc(NC(=O)c2sc3ccccc3c2C)cn1 [Example 36, hydrochloride]
criterion not met

What do you have for "CCn1c(C(=O)Nc2ccc(N(C)C3CC3)nc2)cc2cc(Cl)ccc21" ?
criterion not met

Proceed to "CCn1c(C(=O)Nc2ccc(N3CCN(C(=O)OC(C)(C)C)CC3)nc2)cc2c(OCC(C)C)cccc21"
criterion met

* * *

# Tested on: DGAT
# TEST PROTOCOL: DGAT Phospholipid FlashPlate Assay
# Format: biochemical
# DETAILS: DGAT pellet, DAG-coated PL-FlashPlate, 14C-Pal-CoA, 37° C. for 1 hour; read-out: DGAT Inhibition Activity IC50
Structures can show the parent of a compound that is named as a salt.
Labelling field: enter class 1 if recorded IC50 is less than 300 nM. Enter class 0 if it equals or exceeds that cut-off.

Worked cases, answers included:
INSERT INTO results (compound, group) VALUES
  ('CCn1c(C(=O)Nc2ccc(N3CCN(C(=O)[C@H]4CC[C@H](C(=O)OCc5ccccc5)CC4)CC3)nc2)cc2c(OC)cccc21', 'class 0'),
  ('CCOc1cccc2c1cc(C(=O)Nc1ccc(O[C@H]3CCN(C(=O)CC(C)(C)C(=O)O)C3)cc1)n2CC', 'class 1'),
  ('CCn1c(C(=O)Nc2ccc(N[C@H]3CCN(C(=O)NC(C)(C)C)C3)nc2)cc2c(C)cccc21 [Example 58, hydrochloride]', 'class 1'),
  ('CCOC(=O)N1CC[C@H](Nc2ccc(NC(=O)c3cc4c(OCC)cccc4n3CC)cn2)C1 [Example 55, hydrochloride]', 'class 0'),
  ('CCn1c(C(=O)Nc2ccc(C3CCN(C(=O)CC(C)(C)C(=O)O)CC3)cc2)cc2c(Cl)c(Cl)ccc21', 'class 0'),
  ('CCn1c(C(=O)Nc2ccc(N3CCN(C(=O)OC(C)(C)C)CC3)nc2)cc2c(C(F)(F)F)cccc21', 'class 0'),
  ('CCn1c(C(=O)Nc2ccc(N3CCN(c4ccc(C(=O)O)cc4)CC3)cc2)cc2c(Cl)c(Cl)ccc21', 'class 0'),
  ('COc1cccc2c(C)c(C(=O)Nc3ccc(N4CCN(C(=O)[C@H]5CCC[C@@H]5C(=O)O)CC4)cc3)[nH]c12', 'class 0');

Proceed to the following item.
Take the compound "CCOc1cccc2c1cc(C(=O)Nc1ccc(C3CCN(C(=O)[C@@H]4CCC[C@H]4C(=O)O)CC3)cc1)n2CC" and say whether its IC50 is less than 300 nM.
class 0
